- studySystem: Serine/threonine-protein kinase Chk2 (Homo sapiens)
- Sequence (O96017 whole entry): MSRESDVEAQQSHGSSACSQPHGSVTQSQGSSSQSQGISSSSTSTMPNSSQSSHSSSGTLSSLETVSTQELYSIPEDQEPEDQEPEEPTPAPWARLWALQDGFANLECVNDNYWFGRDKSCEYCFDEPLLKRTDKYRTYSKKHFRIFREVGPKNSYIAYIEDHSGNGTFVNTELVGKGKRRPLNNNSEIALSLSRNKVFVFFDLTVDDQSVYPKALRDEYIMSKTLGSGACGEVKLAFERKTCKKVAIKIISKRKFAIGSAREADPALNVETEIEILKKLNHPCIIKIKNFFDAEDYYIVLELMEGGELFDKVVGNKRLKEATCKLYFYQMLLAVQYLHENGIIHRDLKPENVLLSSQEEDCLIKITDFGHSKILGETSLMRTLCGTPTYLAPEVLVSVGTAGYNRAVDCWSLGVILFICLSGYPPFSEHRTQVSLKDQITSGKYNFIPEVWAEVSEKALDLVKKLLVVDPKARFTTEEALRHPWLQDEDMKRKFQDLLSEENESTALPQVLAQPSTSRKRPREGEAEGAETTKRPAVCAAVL
Use ΔTm to assign classes; range list: low range: < 0.6 °C; mid range: ≥ 0.6 °C and < 2 °C; high range: ≥ 2 °C

[
  {
    "molecularString": "COc1ccc2c(c1)/C(=C/c1cnc[nH]1)C(=O)N2",
    "studySystem": "Serine/threonine-protein kinase Chk2 (Homo sapiens)",
    "groupLabel": "mid range"
  },
  {
    "molecularString": "Oc1ccc(-c2nc(-c3ccc(F)cc3)c(-c3ccncc3)[nH]2)cc1",
    "studySystem": "Serine/threonine-protein kinase Chk2 (Homo sapiens)",
    "groupLabel": "low range"
  },
  {
    "molecularString": "CC(C)n1cnc2/c(=N/c3cccc(Cl)c3)nc(NCCO)[nH]c21",
    "studySystem": "Serine/threonine-protein kinase Chk2 (Homo sapiens)",
    "groupLabel": "mid range"
  },
  {
    "molecularString": "CC(C)c1cc(/C=C(\\C#N)C(=O)NCCCc2ccccc2)cc(C(C)C)c1O",
    "studySystem": "Serine/threonine-protein kinase Chk2 (Homo sapiens)",
    "groupLabel": "low range"
  },
  {
    "molecularString": "N#CC(C#N)=Cc1ccc(O)c(O)c1",
    "studySystem": "Serine/threonine-protein kinase Chk2 (Homo sapiens)",
    "groupLabel": "mid range"
  },
  {
    "molecularString": "CC(C)(C)c1cc(C=C2C(=O)C=CC2=O)cc(C(C)(C)C)c1O",
    "studySystem": "Serine/threonine-protein kinase Chk2 (Homo sapiens)",
    "groupLabel": "mid range"
  },
  {
    "molecularString": "Brc1c(Br)c(Br)c2[nH]nnc2c1Br",
    "studySystem": "Serine/threonine-protein kinase Chk2 (Homo sapiens)",
    "groupLabel": "low range"
  },
  {
    "molecularString": "CC(C)n1cnc2c(NCc3ccccc3)nc(NCCCO)nc21",
    "studySystem": "Serine/threonine-protein kinase Chk2 (Homo sapiens)",
    "groupLabel": "low range"
  },
  {
    "molecularString": "Cc1nc(N)sc1-c1ccnc(Nc2cccc([N+](=O)[O-])c2)n1",
    "studySystem": "Serine/threonine-protein kinase Chk2 (Homo sapiens)",
    "groupLabel": "high range"
  },
  {
    "molecularString": "Cc1ccc(NC2=CC(=O)c3sc(C)nc3C2=O)cc1",
    "studySystem": "Serine/threonine-protein kinase Chk2 (Homo sapiens)",
    "groupLabel": "low range"
  },
  {
    "molecularString": "Cc1ccc(NC(=O)c2cccc(N(C)C)c2)cc1NC(=O)c1ccc(O)cc1",
    "studySystem": "Serine/threonine-protein kinase Chk2 (Homo sapiens)",
    "groupLabel": "mid range"
  },
  {
    "molecularString": "NC(=O)c1ccc(-c2nc(-c3ccc4c(c3)OCCO4)c(-c3ccccn3)[nH]2)cc1",
    "studySystem": "Serine/threonine-protein kinase Chk2 (Homo sapiens)",
    "groupLabel": "low range"
  },
  {
    "molecularString": "Oc1cc(O)cc(/C=C/c2ccc(O)c(O)c2)c1",
    "studySystem": "Serine/threonine-protein kinase Chk2 (Homo sapiens)",
    "groupLabel": "mid range"
  },
  {
    "molecularString": "O=C1Nc2cc(Br)ccc2/C1=C1/Nc2ccccc2/C1=N\\O",
    "studySystem": "Serine/threonine-protein kinase Chk2 (Homo sapiens)",
    "groupLabel": "high range"
  },
  {
    "molecularString": "NC1=N/C(=C2/CCNC(=O)c3[nH]ccc32)C(=O)N1",
    "studySystem": "Serine/threonine-protein kinase Chk2 (Homo sapiens)",
    "groupLabel": "mid range"
  },
  {
    "molecularString": "O=C1Nc2ccc(S(=O)(=O)O)cc2/C1=C1/Nc2ccccc2/C1=N\\O",
    "studySystem": "Serine/threonine-protein kinase Chk2 (Homo sapiens)",
    "groupLabel": "high range"
  },
  {
    "molecularString": "N#C/C(=C1/Nc2ccccc2S1)c1ccnc(NCCc2cccnc2)n1",
    "studySystem": "Serine/threonine-protein kinase Chk2 (Homo sapiens)",
    "groupLabel": "high range"
  },
  {
    "molecularString": "CN(C)S(=O)(=O)c1ccc2c(c1)/C(=C/c1cc3c([nH]1)CCCC3)C(=O)N2",
    "studySystem": "Serine/threonine-protein kinase Chk2 (Homo sapiens)",
    "groupLabel": "high range"
  },
  {
    "molecularString": "O=C1Nc2ccc(I)cc2/C1=C1/Nc2ccccc2/C1=N\\O",
    "studySystem": "Serine/threonine-protein kinase Chk2 (Homo sapiens)",
    "groupLabel": "mid range"
  },
  {
    "molecularString": "O=C1NC(=O)c2c1c1c3ccccc3n3c1c1c2c2ccccc2n1C1CCC3O1",
    "studySystem": "Serine/threonine-protein kinase Chk2 (Homo sapiens)",
    "groupLabel": "high range"
  },
  {
    "molecularString": "O=S(=O)(c1cccc2c(Cl)cccc12)N1CCCNCC1",
    "studySystem": "Serine/threonine-protein kinase Chk2 (Homo sapiens)",
    "groupLabel": "low range"
  }
]

* * *

Listed here: compounds with reported ΔTm for Ribosomal protein S6 kinase alpha-3 (Homo sapiens) (UniProt P51812).

[
  {
    "compound": "C=CNC#N",
    "ΔTm": "0 °C"
  },
  {
    "compound": "O=c1cc(-c2ccc(O)cc2)oc2cc(O)cc(O)c12",
    "ΔTm": "2.7 °C"
  },
  {
    "compound": "COc1cc(OC)c(/C=C2\\C(=O)Nc3ccccc32)c(OC)c1",
    "ΔTm": "-0.2 °C"
  },
  {
    "compound": "CC(C)(C)c1cc(C=C2C(=O)C=CC2=O)cc(C(C)(C)C)c1O",
    "ΔTm": "0.5 °C"
  },
  {
    "compound": "C[S+]([O-])c1ccc(-c2nc(-c3ccc(F)cc3)c(-c3ccncc3)[nH]2)cc1 (stereo unspecified)",
    "ΔTm": "0.3 °C"
  },
  {
    "compound": "Cc1cc2ncc(-c3ccccc3)nc2cc1C",
    "ΔTm": "0.2 °C"
  }
]

* * *

Quick note: these are ΔTm numbers for system: Serine/threonine-protein kinase 25 (Homo sapiens)

[
  {
    "molecularString": "O=c1c2ccccc2[nH]c(=S)n1CCN1CCC(=C(c2ccc(F)cc2)c2ccc(F)cc2)CC1",
    "displayUnit": "°C",
    "ΔTm": 1.5
  },
  {
    "molecularString": "O=C1Cc2c([nH]c3ccc([N+](=O)[O-])cc23)-c2ccccc2N1",
    "displayUnit": "°C",
    "ΔTm": 2.4
  },
  {
    "molecularString": "O=c1sn(Cc2ccccc2)c(=S)n1Cc1ccccc1",
    "displayUnit": "°C",
    "ΔTm": 0.5
  },
  {
    "molecularString": "COc1cc(OC)c(/C=C2\\C(=O)Nc3ccccc32)c(OC)c1",
    "displayUnit": "°C",
    "ΔTm": 0.1
  },
  {
    "molecularString": "N#C/C(=C\\c1ccc(O)c(O)c1)C(=O)NCc1ccccc1",
    "displayUnit": "°C",
    "ΔTm": -0.4
  },
  {
    "molecularString": "COC1=C2C[C@@H](C)C[C@H](OC)[C@H](O)[C@@H](C)/C=C(\\C)[C@H](OC(N)=O)[C@@H](OC)/C=C\\C=C(/C)C(=O)NC(=CC1=O)C2=O",
    "displayUnit": "°C",
    "ΔTm": -0.6
  },
  {
    "molecularString": "CC(C)c1cc(/C=C(\\C#N)C(=O)NCCCc2ccccc2)cc(C(C)C)c1O",
    "displayUnit": "°C",
    "ΔTm": 0.7
  },
  {
    "molecularString": "O=C1Nc2ccccc2/C1=C1/Nc2ccccc2/C1=N\\O",
    "displayUnit": "°C",
    "ΔTm": 4.9
  },
  {
    "molecularString": "N#C/C(=C1/Nc2ccccc2S1)c1ccnc(NCCc2cccnc2)n1",
    "displayUnit": "°C",
    "ΔTm": 0.8
  }
]

* * *

- assayExplanation: Inhibition of P60cSrc
pIC50: −log10 of the molar value.

[
  {
    "molecule": "O=C(O)c1cc(N(Cc2ccccc2O)Cc2cc(O)ccc2O)ccc1O [LAVENDUSTIN A]",
    "pIC50": 6.30
  }
]

* * *

Record: ΔTm reported on Serine/threonine-protein kinase PLK1 (Homo sapiens).

[
  {
    "compound": "CC(C)n1cnc2/c(=N/c3cccc(Cl)c3)nc(NCCO)[nH]c21",
    "ΔTm": "7.5 °C"
  },
  {
    "compound": "O=C1C=C2C(=Nc3c2c2c(c4c3=NC3=C4CCC=C3)C=NC=2)CC1",
    "ΔTm": "11.9 °C"
  },
  {
    "compound": "O=C(Nc1cccc(Nc2nccc(Nc3cccc(C(F)(F)F)c3)n2)c1)C1CC1",
    "ΔTm": "3.3 °C"
  },
  {
    "compound": "C[S+]([O-])c1ccc(CSc2nc(-c3ccc(F)cc3)c(-c3ccncc3)[nH]2)cc1 (stereo not given)",
    "ΔTm": "-0.2 °C"
  },
  {
    "compound": "O=c1cc(N2CCOCC2)oc2c1ccc1ccccc12",
    "ΔTm": "2.3 °C"
  }
]
